Provenance of the data: ChEMBL document CHEMBL1781932

- Test system: Enterobacter cloacae
- assay_notes: Antimicrobial activity against tetracycline-susceptible Enterobacter cloacae isolate 108 by CLSI dilution method
- Format: functional
Recorded measurements of MIC, one per entry
Give the quantity in µg/mL, number only.

Some molecules with known MIC results, for comparison:
1) CCN(C)Cc1ccc2cc3c(c(O)c2c1)C(=O)C1=C(O)[C@]2(O)C(=O)C(C(N)=O)=C(O)[C@@H](N(C)C)[C@@H]2C[C@@H]1C3    4
2) CN(C)c1c2c(c(O)c3cc(CN4CCCC4)ccc13)C(=O)C1=C(O)[C@]3(O)C(=O)C(C(N)=O)=C(O)[C@@H](N(C)C)[C@@H]3C[C@@H]1C2    16
3) CN(C)[C@@H]1C(O)=C(C(N)=O)C(=O)[C@@]2(O)C(O)=C3C(=O)c4c(cc5ccc(CN6CCCCC6)cc5c4O)C[C@H]3C[C@@H]12    8

# input for lookup
Q: Requested read-out: MIC. Entry: CNCc1ccc2c(N(C)C)c3c(c(O)c2c1)C(=O)C1=C(O)[C@]2(O)C(=O)C(C(N)=O)=C(O)[C@@H](N(C)C)[C@@H]2C[C@@H]1C3
A: 8

----------
- Test system: Streptococcus pneumoniae
- assay_notes: Antimicrobial activity against tetracycline-resistant Streptococcus pneumoniae isolate 160 harboring tetM gene by CLSI dilution method
- Assay type: functional
Strictly below 0.5 µg/mL in MIC: 1.0. Otherwise: 0.0.

Please review the following examples before continuing.
1) COCCNCc1ccc2c(N(C)C)c3c(c(O)c2c1)C(=O)C1=C(O)[C@]2(O)C(=O)C(C(N)=O)=C(O)[C@@H](N(C)C)[C@@H]2C[C@@H]1C3    0.0
2) CN(C)Cc1cccc2c(O)c3c(cc12)C[C@H]1C[C@H]2[C@H](N(C)C)C(O)=C(C(N)=O)C(=O)[C@@]2(O)C(O)=C1C3=O    0.0
3) CN(C)c1ccc(O)c2c1C[C@H]1C[C@H]3[C@H](N(C)C)C(O)=C(C(N)=O)C(=O)[C@@]3(O)C(O)=C1C2=O    0.0
4) CCCOc1c2c(c(O)c3cc(CN4CCC4)ccc13)C(=O)C1=C(O)[C@]3(O)C(=O)C(C(N)=O)=C(O)[C@@H](N(C)C)[C@@H]3C[C@@H]1C2    1.0

Q: Is MIC of CCN(C)Cc1ccc2cc3c(c(O)c2c1)C(=O)C1=C(O)[C@]2(O)C(=O)C(C(N)=O)=C(O)[C@@H](N(C)C)[C@@H]2C[C@@H]1C3 strictly below 0.5 µg/mL?
A: 1.0

----------
- System: Streptococcus pneumoniae
- assay_notes: Antimicrobial activity against tetracycline-resistant Streptococcus pneumoniae isolate 160 harboring tetM gene by CLSI dilution method
- Type: functional
Category | rule: reported MIC within range, see bucket A = under 0.2 mg/L, bucket B = from 0.2 mg/L up to 4 mg/L, bucket C = 4 mg/L and over

Here are 3 compounds together with their reported answers.
1) CCCN(CCC)c1c2c(c(O)c3cc(CN4CCC4)ccc13)C(=O)C1=C(O)[C@]3(O)C(=O)C(C(N)=O)=C(O)[C@@H](N(C)C)[C@@H]3C[C@@H]1C2    bucket B
2) CN(C)[C@@H]1C(O)=C(C(N)=O)C(=O)[C@@]2(O)C(O)=C3C(=O)c4c(cc5ccc(-c6cccnc6)cc5c4O)C[C@H]3C[C@@H]12    bucket C
3) COC1CN(Cc2ccc3cc4c(c(O)c3c2)C(=O)C2=C(O)[C@]3(O)C(=O)C(C(N)=O)=C(O)[C@@H](N(C)C)[C@@H]3C[C@@H]2C4)C1    bucket B

Q: Assign a bin to CNc1c2c(c(O)c3cc(CN4CCC4)ccc13)C(=O)C1=C(O)[C@]3(O)C(=O)C(C(N)=O)=C(O)[C@@H](N(C)C)[C@@H]3C[C@@H]1C2
A: bucket B

Q: Looking at CN(C)[C@@H]1C(O)=C(C(N)=O)C(=O)[C@@]2(O)C(O)=C3C(=O)c4c(cc5cc(N)ccc5c4O)C[C@H]3C[C@@H]12 , which class would you pick?
A: bucket C

Q: Textbook exercise: identify the category of the compound given here, CN(C)[C@@H]1C(O)=C(C(N)=O)C(=O)[C@@]2(O)C(O)=C3C(=O)c4c(c(F)c5ccc(CNC(C)(C)C)cc5c4O)C[C@H]3C[C@@H]12 , according to its measured value.
A: bucket A

Q: Could you place CC(C)Oc1c2c(c(O)c3cc(CN4CCC4)ccc13)C(=O)C1=C(O)[C@]3(O)C(=O)C(C(N)=O)=C(O)[C@@H](N(C)C)[C@@H]3C[C@@H]1C2 in its proper category? Many thanks.
A: bucket A

----------
Overview of reported MIC across a group of molecules:
- Tested on: Streptococcus pneumoniae
- assay_notes: Antimicrobial activity against tetracycline-resistant Streptococcus pneumoniae isolate 160 harboring tetM gene by CLSI dilution method
- Assay type: functional
Field format: number, assumed µg/mL, no unit text.

Some entries whose results are on file:
1) COCCOc1c2c(c(O)c3cc(CN4CCC4)ccc13)C(=O)C1=C(O)[C@]3(O)C(=O)C(C(N)=O)=C(O)[C@@H](N(C)C)[C@@H]3C[C@@H]1C2    0.25
2) CN(C)[C@@H]1C(O)=C(C(N)=O)C(=O)[C@@]2(O)C(O)=C3C(=O)c4c(cc5ccc(CN6CC(O)C6)cc5c4O)C[C@H]3C[C@@H]12    0.5

Q: Request - read-out MIC | tested on Streptococcus pneumoniae | molecule CC(=O)NC1CN(Cc2ccc3cc4c(c(O)c3c2)C(=O)C2=C(O)[C@]3(O)C(=O)C(C(N)=O)=C(O)[C@@H](N(C)C)[C@@H]3C[C@@H]2C4)C1
A: 2

Q: // map CN(C)[C@@H]1C(O)=C(C(N)=O)C(=O)[C@@]2(O)C(O)=C3C(=O)c4c(cc5c(CN6CCC6)cccc5c4O)C[C@H]3C[C@@H]12 to recorded MIC (system: Streptococcus pneumoniae)
A: 2

Q: Quick check: MIC on Streptococcus pneumoniae, item CN(C)[C@@H]1C(O)=C(C(N)=O)C(=O)[C@@]2(O)C(O)=C3C(=O)c4c(cc5ccc(CN6CCCCC6)cc5c4O)C[C@H]3C[C@@H]12 ?
A: 0.25

Q: Give recorded MIC with Streptococcus pneumoniae for the following molecule: COc1c2c(c(O)c3cc(CN4CCC4)ccc13)C(=O)C1=C(O)[C@]3(O)C(=O)C(C(N)=O)=C(O)[C@@H](N(C)C)[C@@H]3C[C@@H]1C2
A: 0.0625

----------
- System: Klebsiella pneumoniae
- assay_notes: Antimicrobial activity against tetracycline-resistant Klebsiella pneumoniae isolate 153 harboring tetA gene by CLSI dilution method
- Format: functional
reported_endpoint: MIC (µg/mL)
Express the result in µg/mL but write the number alone.

Q: What value of MIC has been reported for the following compound? CC(=O)NC1CN(Cc2ccc3cc4c(c(O)c3c2)C(=O)C2=C(O)[C@]3(O)C(=O)C(C(N)=O)=C(O)[C@@H](N(C)C)[C@@H]3C[C@@H]2C4)C1
A: 16

Q: Which value of MIC has been reported for COCCNCc1ccc2cc3c(c(O)c2c1)C(=O)C1=C(O)[C@]2(O)C(=O)C(C(N)=O)=C(O)[C@@H](N(C)C)[C@@H]2C[C@@H]1C3 in the records?
A: 8

Q: Give its MIC value. Item: CCCOc1c2c(c(O)c3cc(CN4CCC4)ccc13)C(=O)C1=C(O)[C@]3(O)C(=O)C(C(N)=O)=C(O)[C@@H](N(C)C)[C@@H]3C[C@@H]1C2
A: 32

Q: What does the record list as MIC for CN(C)[C@@H]1C(O)=C(C(N)=O)C(=O)[C@@]2(O)C(O)=C3C(=O)c4c(c(F)c5ccc(CNC6CC6)cc5c4O)C[C@H]3C[C@@H]12 ?
A: 8

Q: Suppose we examine the compound CN(C)C1CN(Cc2ccc3cc4c(c(O)c3c2)C(=O)C2=C(O)[C@]3(O)C(=O)C(C(N)=O)=C(O)[C@@H](N(C)C)[C@@H]3C[C@@H]2C4)C1 ; what MIC value has been reported?
A: 8

Q: Sample CCNCc1ccc2c(F)c3c(c(O)c2c1)C(=O)C1=C(O)[C@]2(O)C(=O)C(C(N)=O)=C(O)[C@@H](N(C)C)[C@@H]2C[C@@H]1C3 — what was its MIC?
A: 8

----------
- Test system: Klebsiella pneumoniae
- assay_notes: Antimicrobial activity against tetracycline-resistant Klebsiella pneumoniae isolate 153 harboring tetA gene by CLSI dilution method
- Format: functional
reported_endpoint: MIC

Q: Need MIC of CCCN(CCC)c1c2c(c(O)c3cc(CN4CCC4)ccc13)C(=O)C1=C(O)[C@]3(O)C(=O)C(C(N)=O)=C(O)[C@@H](N(C)C)[C@@H]3C[C@@H]1C2 , thanks.
A: > 32 µg/mL

Q: Please give the measured MIC for this molecule: CN(C)[C@@H]1C(O)=C(C(N)=O)C(=O)[C@@]2(O)C(O)=C3C(=O)c4c(cc5ccc(F)cc5c4O)C[C@H]3C[C@@H]12
A: > 32 µg/mL

Q: Fill in the blank: the reported MIC of CN(C)[C@@H]1C(O)=C(C(N)=O)C(=O)[C@@]2(O)C(O)=C3C(=O)c4c(cc5ccc(CN6CCCC6)cc5c4O)C[C@H]3C[C@@H]12 is ____.
A: 4 µg/mL
